System: CTLL-2 cells
ASSAY METHOD TEXT: Cell proliferation, ViaLight assay
Assay type: cell-based
APPLIED CONDITIONS: Mus musculus, CTLL-2; 48 hour, Vialight
QUANTITY: IC50 (nM)
Just the number in nM, nothing appended.

Incoming: Looking for the measured IC50 of NC(=O)c1cnc(N[C@H](C2CC2)C(F)(F)F)c2c1[nH]c1cc(-c3cnc(N)nc3)ccc12 , can you help?
Outgoing: 13

----------
TARGET OR SYSTEM: TYK2 (JH1) (Homo sapiens)
Construct: TYK2 (JH1)
Sequence (P29597 897-1176 limits assumed, species assumed): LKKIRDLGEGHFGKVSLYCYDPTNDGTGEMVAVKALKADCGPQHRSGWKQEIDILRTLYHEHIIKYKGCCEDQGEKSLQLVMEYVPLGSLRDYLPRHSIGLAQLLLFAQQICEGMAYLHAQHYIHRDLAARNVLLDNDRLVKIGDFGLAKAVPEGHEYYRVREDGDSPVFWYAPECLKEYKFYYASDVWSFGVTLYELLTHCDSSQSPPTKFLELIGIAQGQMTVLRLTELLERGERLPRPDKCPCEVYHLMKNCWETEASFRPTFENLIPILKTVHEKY
ASSAY METHOD TEXT: TYK2 enzyme assay, HTRF detection
APPLIED CONDITIONS: HTRF; mean, n = 3; read-out: IC50, cell-free TYK2 (JH1)
QUANTITY: pIC50
The scale used: pIC50 is minus the common logarithm of the concentration in molar units.

Incoming: Looking for the measured pIC50 of NC(=O)c1cnc(N[C@H](C2CC2)C(F)(F)F)c2c1[nH]c1cc(-c3cnc(N)nc3)ccc12 [MRLB-11055] , can you help?
Outgoing: 9.74

----------
Test system: pSTAT5
ASSAY METHOD TEXT: Acute PK/PD: pSTAT5 in peripheral blood of darbepoetin-stimulated mice
Format: in vivo, C57BL/6 mice
APPLIED CONDITIONS: Mus musculus; oral dosing, mice simultaneously injected with darbepoetin; read-out: IC50 for inhibition of pSTAT5 in peripheral blood in vivo
QUANTITY: pIC50
The scale used: pIC50 is minus the common logarithm of the concentration in molar units.

Incoming: Any idea what pIC50 came out for NC(=O)c1cnc(N[C@H](C2CC2)C(F)(F)F)c2c1[nH]c1cc(-c3cnc(N)nc3)ccc12 on pSTAT5?
Outgoing: 5.92

----------
TARGET OR SYSTEM: JAK2 (JH1–JH2) WT (Homo sapiens, UniProt O60674)
Construct: JAK2, 25 pM enzyme (JH1, JH1–JH2^wt, JH1–JH2^V617F domains)
Sequence (O60674 532-1132 limits assumed): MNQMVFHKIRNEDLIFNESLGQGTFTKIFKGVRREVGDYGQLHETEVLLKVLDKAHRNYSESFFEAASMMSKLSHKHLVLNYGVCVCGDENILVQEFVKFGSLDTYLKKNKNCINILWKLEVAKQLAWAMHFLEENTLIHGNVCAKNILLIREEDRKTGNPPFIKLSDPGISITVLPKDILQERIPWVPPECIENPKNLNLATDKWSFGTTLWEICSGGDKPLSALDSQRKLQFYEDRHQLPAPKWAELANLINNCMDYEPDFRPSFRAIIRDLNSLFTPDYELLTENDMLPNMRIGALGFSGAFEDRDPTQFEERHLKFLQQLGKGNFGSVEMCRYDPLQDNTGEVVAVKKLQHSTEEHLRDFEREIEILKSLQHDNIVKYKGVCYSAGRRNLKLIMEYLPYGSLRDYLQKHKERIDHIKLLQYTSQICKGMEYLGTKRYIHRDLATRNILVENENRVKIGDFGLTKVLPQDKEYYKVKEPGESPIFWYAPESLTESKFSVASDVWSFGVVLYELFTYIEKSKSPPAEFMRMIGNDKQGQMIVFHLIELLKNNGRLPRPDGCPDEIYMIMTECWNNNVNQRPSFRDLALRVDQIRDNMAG
ASSAY METHOD TEXT: JAK2 enzyme assay, HTRF detection
APPLIED CONDITIONS: kinase activity, mean, n = 3, read-out: IC50, cell-free JAK2 (JH1–JH2) WT
QUANTITY: IC50 (pM)
Just the number in pM, nothing appended.

Incoming: Looking for the measured IC50 of NC(=O)c1cnc(N[C@H](C2CC2)C(F)(F)F)c2c1[nH]c1cc(-c3cnc(N)nc3)ccc12 [MRLB-11055] , can you help?
Outgoing: 780

----------
TARGET OR SYSTEM: JAK2 (JH1–JH2) V617F (Homo sapiens, UniProt O60674, V617F)
Construct: JAK2, 25 pM enzyme (JH1, JH1–JH2^wt, JH1–JH2^V617F domains)
Sequence (O60674 532-1132 V617F limits assumed): as the sequence (O60674 532-1132 limits assumed) above, with V86F counted along it
ASSAY METHOD TEXT: JAK2 enzyme assay, HTRF detection
APPLIED CONDITIONS: kinase activity, mean, n = 3, read-out: IC50, cell-free JAK2 (JH1–JH2) V617F
QUANTITY: IC50
Put your answer as a value accompanied by its unit after it.

Incoming: Looking for the measured IC50 of NC(=O)c1cnc(N[C@H](C2CC2)C(F)(F)F)c2c1[nH]c1cc(-c3cnc(N)nc3)ccc12 , can you help?
Outgoing: 0.35 nM

----------
Test system: BaF3 (JAK2 WT) cells
ASSAY METHOD TEXT: Cell proliferation, ViaLight assay
Type: cell-based
APPLIED CONDITIONS: Mus musculus, 48 hour, EPO-stimulated
QUANTITY: IC50 (µM)
Just the number in µM, nothing appended.

Incoming: Any idea what IC50 came out for NC(=O)c1cnc(N[C@H](C2CC2)C(F)(F)F)c2c1[nH]c1cc(-c3cnc(N)nc3)ccc12 [MRLB-11055] on BaF3 (JAK2 WT) cells?
Outgoing: 0.014
